experiment: Biodistribution by gamma counting of harvested organs; type: in vivo; conditions: mouse, small intestine, iv, 150 uCi, total radioactivity
Bridges are numbered along the chain shown (N, C = ends). Roman numbers before positions name the chains, in order. Where no end group is shown, it is not given here. The star is where a group is joined. X1 = O=C(CON=Cc1ccc(F)cc1)*
Assay Metric: tissue uptake at 4 h (%ID/g)
State the answer as a number, implicitly in %ID/g.

## Input # tissue uptake at 4 h lookup, item I: VHPKQHRGGSYKKK(X1) / II: VHPKQHRGGSYK / III: VHPKQHRGGSY / IV: VHPKQHRGGSY (amide I:12-IV:C, I:13-II:C, II:12-III:C) [^18F-4V]
## Output 1.9
